Reference source: the supplement of paper PMC11208160

assay: recombinant barcode read abundance after kanamycin selection (control-corrected) (log10(CPM+1)); higher = more efficient recombination; sequences stand for … in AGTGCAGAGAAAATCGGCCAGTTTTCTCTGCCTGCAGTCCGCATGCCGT…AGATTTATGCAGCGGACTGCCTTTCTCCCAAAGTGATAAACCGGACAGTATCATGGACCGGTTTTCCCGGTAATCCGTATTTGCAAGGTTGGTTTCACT; site = the 11-nt target
I'd appreciate it if you could supply recombinant barcode read abundance (log10) values for the items below.
Answers are plain numbers.

Use the examples below as a reference point.
CGCGGGTCTTGGGTTCTAACCTGTTGCTT (site CGCGAATCTAA): 0.236
CAGCATACTTGGGTTCTAACCTGTTGCCT (site CTGCATACTAG): 0.0255

Query string: Which recombinant barcode read abundance (log10) value is on record for ACGGTCACTTGGGTTCTAACCTGTTGCCT (site AGGGTCACTAG) ?
Result string: 0.264

###

assay: recombinant UMI read abundance after kanamycin selection (control-corrected) (log10(CPM+1)); higher = more efficient recombination; extreme values may be limits of the assay; sequences stand for … in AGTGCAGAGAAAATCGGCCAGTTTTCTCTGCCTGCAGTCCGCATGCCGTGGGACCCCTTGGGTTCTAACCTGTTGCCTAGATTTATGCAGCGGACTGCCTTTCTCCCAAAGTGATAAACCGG…AGGTTGGTTTCACT; site = the 11-nt donor
MEASUREMENT LABEL: recombinant UMI read abundance (log10)
Answers are plain numbers.

CAAATATCATGGACCGGTTTTCCCGGTAATCCGTATTTGAC (site CAAATATCTGT): 1.58
AATGTGTCATGGACCGGTTTTCCCGGTAATCCGTATTTGGC (site AATGTGTCTGA): 0
CCGATTACATGGACCGGTTTTCCCGGTAATCCGTATTTGCT (site CCGATTACTAG): 0.743
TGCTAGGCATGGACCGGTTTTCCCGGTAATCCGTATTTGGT (site TGCTCGGCTAC): 0.0253
AATGTTTCATGGACCGGTTTTCCCGGTAATCCGTATTTGAC (site AATGTTTCTGT): 0
GTAGATACATGGACCGGTTTTCCCGGTAATCCGTATTTGAC (site GTAGCTACTGT): 0

Could you now consider this next sequence?
Query string: Which recombinant UMI read abundance (log10) value is on record for CCTACTACATGGACCGGTTTTCCCGGTAATCCGTATTTGGC (site CCTACTACTGC) ?
Result string: 0

###

assay: recombinant UMI read abundance after kanamycin selection (control-corrected) (log10(CPM+1)); higher = more efficient recombination; extreme values may be limits of the assay; sequences stand for … in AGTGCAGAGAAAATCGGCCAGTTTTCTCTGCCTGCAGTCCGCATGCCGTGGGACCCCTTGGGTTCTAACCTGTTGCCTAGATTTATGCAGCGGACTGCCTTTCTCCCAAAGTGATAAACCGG…AGGTTGGTTTCACT; site = the 11-nt donor
MEASUREMENT LABEL: recombinant UMI read abundance (log10)
One number for each entry.

Use the examples below as a reference point.
CTTATAACATGGACCGGTTTTCCCGGTAATCCGTATTTGGA (site CTTATAACTTC): 1
AATGTGTCATGGACCGGTTTTCCCGGTAATCCGTATTTGGC (site AATGTGTCTGT): 1.99

Would you be so kind as to report recombinant UMI read abundance (log10) for each listed record?
1. TTGTAGGCATGGACCGGTTTTCCCGGTAATCCGTATTTGGC (site TTGTAGGCTGC)
2. CCTAAAGCATGGACCGGTTTTCCCGGTAATCCGTATTTGTT (site CCTAAAGCTAA)
3. TACTGGACATGGACCGGTTTTCCCGGTAATCCGTATTTGCT (site TACTGGACTAG)
4. GGTTAGACATGGACCGGTTTTCCCGGTAATCCGTATTTGCC (site GGATAGACTGG)
5. AATACTTCATGGACCGGTTTTCCCGGTAATCCGTATTTGAG (site AATACTTCTCT)
6. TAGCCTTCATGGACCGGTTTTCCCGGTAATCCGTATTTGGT (site TGGCCTTCTAC)
7. TTAGCTGCATGGACCGGTTTTCCCGGTAATCCGTATTTGAG (site TTAGCTGCTCC)

Result string:
[1.76, 0.0032, 2.01, 1.17, 1.6, 0, 0.0699]
